# test protocol: AUC (0 to 24 hrs ) in healthy human at 400 mg, po qd coadministered with 900 mg, po thrice weekly of rifapentine on day 5 post compound dose measured on day 19 post compound dose by HPLC
# Type: ADME, organism-based
# Design: time < 24 hr, dose 400 mg, route oral
# condition description: plasma
measure name: AUC at 24 h (ng·h/mL)

INSERT INTO assay_data (smiles, measure_name, reading) VALUES
  ('COc1c(N2C[C@@H]3CCCN[C@@H]3C2)c(F)cc2c(=O)c(C(=O)O)cn(C3CC3)c12', 'AUC at 24 h', 34400);

====

# test protocol: Tmax in healthy human at 400 mg, po qd measured on day 4 by HPLC
# Format: ADME, organism-based
# condition description: in vivo
measure name: Tmax (h)

INSERT INTO assay_data (molecule, reading) VALUES
  ('COc1c(N2C[C@@H]3CCCN[C@@H]3C2)c(F)cc2c(=O)c(C(=O)O)cn(C3CC3)c12 [MOXIFLOXACIN]', 2.37);
